- System: HEK293T cells
- Protocol Notes: Cell viability assay (CellTiter Glo)
- Type: cell-based, human
- Condition Summary: ratio of IC50 (cell viability) over EC50 (NPEPPS activity)
Assay Endpoint: Therapeutic index
One number for each entry.

Observe how each entry below is paired with its result.
Clc1ccc(C(Nc2nsc3ccccc23)c2ccc(Cl)cc2)cc1 [JMM076]    2.03
c1ccc(COc2ccc3snc(NCc4ccc(OCC5CC5)cc4)c3c2)cc1 [JMM135]    1.54
CN(Cc1cccc2ccccc12)c1nsc2ccccc12 [JMM110]    5.40
FC(F)(F)c1cccc(CNc2nsc3ccccc23)c1 [JMM032]    62.09
FC(F)(F)c1ccc(COc2ccc3snc(NCc4ccc(OCc5ccccc5)cc4)c3c2)cc1 [JMM131]    5.78
Clc1ccc(COc2ccc(CNc3nsc4ccc(OCc5ccccc5)cc34)cc2)cc1Cl [JMM103]    1543.93
c1ccc(C(Nc2nsc3ccccc23)c2ccccc2)cc1 [JMM029]    45.28
Clc1ccc(CNc2nsc3ccccc23)cc1 [JMM015]    1.83

Batch lookup, Therapeutic index per entry.
1. COc1ccc(CNc2n[nH]c3ccccc23)cc1OC [JMM047]
2. c1ccc(COc2ccc3snc(NCc4ccc(-c5ccccc5)cc4)c3c2)cc1 [JMM105]
3. COc1ccc(CNc2ncccn2)cc1OC [JMM048]

Result:
1: 2.85; 2: 2.02; 3: 1.09

Batch lookup, Therapeutic index per entry.
1. CN(Cc1ccc(OCc2ccccc2)cc1)c1nsc2ccccc12 [JMM091]
2. Fc1cccc2c(NCc3ccc(C(F)(F)F)cc3)nsc12 [JMM027]
3. FC(F)(F)c1ccc(CN(Cc2ccccc2)c2nsc3ccccc23)cc1 [JMM072]
4. c1ccc(CNc2ccc(CNc3nsc4ccc(OCc5ccccc5)cc34)cc2)cc1 [JMM122]
5. COc1ccc(CNc2nsc3c(Br)cccc23)cc1OC [JMM041]
6. c1ccc(COc2ccc(CNc3nsc4ccccc34)cc2)cc1 [JMM014]

Result:
1: 1.19; 2: 0.98; 3: 11.52; 4: 69.07; 5: 2.37; 6: 1.75

Batch lookup, Therapeutic index per entry.
1. CN(Cc1ccccc1)c1ccc(CNc2nsc3ccc(OCc4ccccc4)cc23)cc1 [JMM125]
2. Cc1ccc(CNc2nsc3ccccc23)cc1 [JMM023]
3. CC(Nc1nsc2ccccc12)c1cccc2ccccc12 (stereo not drawn) [JMM080]
4. FC(F)(F)c1ccc(CNc2nsc3ncccc23)cc1 [JMM059]

Result:
1: 14.75; 2: 4.47; 3: 11.09; 4: 1.78

Batch lookup, Therapeutic index per entry.
1. COc1ccc(CNc2ccc(F)cn2)cc1OC [JMM046]
2. COc1ccc2snc(NCc3ccc(OCc4ccccc4)cc3)c2c1 [JMM094]
3. CN(Cc1ccc(C(F)(F)F)cc1)c1nsc2ccc(OCc3ccccc3)cc12 [JMM086]

Result:
1. 2.24
2. 4.80
3. 13.14

Batch lookup, Therapeutic index per entry.
1. FC(F)(F)c1ccc(CNc2nsc3ccccc23)cc1 [JMM005]
2. Fc1ccccc1COc1ccc(CNc2nsc3ccc(OCc4ccccc4)cc23)cc1 [JMM118]
3. Fc1ccc2snc(NCc3ccc(OCc4ccccc4)cc3)c2c1 [JMM130]
4. CN(Cc1ccc(SC(F)(F)F)cc1)c1nsc2ccccc12 [JMM082]
5. COc1ccc(CNc2nsc3c(F)cccc23)cc1OC [JMM042]

Result:
[3.42, 0.60, 3.56, 29.32, 10.41]

Batch lookup, Therapeutic index per entry.
1. COc1ccc(C(=O)Nc2nsc3ccccc23)cc1OC [JMM002]
2. c1ccc2c(NCc3ccncn3)nsc2c1 [JMM035]
3. FC(F)(F)Oc1ccccc1CNc1nsc2ccccc12 [JMM055]

Result:
1: 1.36; 2: 22.50; 3: 2.43

Batch lookup, Therapeutic index per entry.
1. CCN(Cc1ccc(C(F)(F)F)cc1)c1nsc2ccccc12 [JMM092]
2. Fc1ccc(NCc2ccc(C(F)(F)F)cc2)nc1 [JMM045]

Result:
1: 2.84; 2: 3.49

Batch lookup, Therapeutic index per entry.
1. FC(F)(F)c1ccc(CNc2n[nH]c3ccccc23)cc1 [JMM038]
2. CN(Cc1ccc(OCc2ccc(Cl)c(Cl)c2)cc1)c1nsc2ccc(OCc3ccccc3)cc12 [JMM109]
3. FC(F)(F)c1ccc(CNc2nsc3ccc(Cl)cc23)cc1 [JMM138]
4. c1cc(CNc2nsc3ccccc23)c2cc[nH]c2c1 [JMM030]
5. CN(Cc1ccc(OCc2ccccc2)cc1)c1nsc2cnccc12 [JMM078]
6. c1ccc(COc2ccc3snc(NCc4ccc(OCC5CCCCC5)cc4)c3c2)cc1 [JMM127]
7. CN(Cc1ccc(SC(F)(F)F)cc1)c1nsc2ccc(OCc3ccccc3)cc12 [JMM098]

Result:
1: 1.06; 2: 14.99; 3: 1.10; 4: 1.16; 5: 21.66; 6: 1.38; 7: 5.68

Problem: Request the reported Therapeutic index associated with FC(F)(F)c1ccc(CNc2ncccn2)cc1 [JMM049]
Result: 2.93

====

- Test Target: NPEPPS (Homo sapiens)
- Construct: endogenous in cells
- Sequence (P55786 whole entry): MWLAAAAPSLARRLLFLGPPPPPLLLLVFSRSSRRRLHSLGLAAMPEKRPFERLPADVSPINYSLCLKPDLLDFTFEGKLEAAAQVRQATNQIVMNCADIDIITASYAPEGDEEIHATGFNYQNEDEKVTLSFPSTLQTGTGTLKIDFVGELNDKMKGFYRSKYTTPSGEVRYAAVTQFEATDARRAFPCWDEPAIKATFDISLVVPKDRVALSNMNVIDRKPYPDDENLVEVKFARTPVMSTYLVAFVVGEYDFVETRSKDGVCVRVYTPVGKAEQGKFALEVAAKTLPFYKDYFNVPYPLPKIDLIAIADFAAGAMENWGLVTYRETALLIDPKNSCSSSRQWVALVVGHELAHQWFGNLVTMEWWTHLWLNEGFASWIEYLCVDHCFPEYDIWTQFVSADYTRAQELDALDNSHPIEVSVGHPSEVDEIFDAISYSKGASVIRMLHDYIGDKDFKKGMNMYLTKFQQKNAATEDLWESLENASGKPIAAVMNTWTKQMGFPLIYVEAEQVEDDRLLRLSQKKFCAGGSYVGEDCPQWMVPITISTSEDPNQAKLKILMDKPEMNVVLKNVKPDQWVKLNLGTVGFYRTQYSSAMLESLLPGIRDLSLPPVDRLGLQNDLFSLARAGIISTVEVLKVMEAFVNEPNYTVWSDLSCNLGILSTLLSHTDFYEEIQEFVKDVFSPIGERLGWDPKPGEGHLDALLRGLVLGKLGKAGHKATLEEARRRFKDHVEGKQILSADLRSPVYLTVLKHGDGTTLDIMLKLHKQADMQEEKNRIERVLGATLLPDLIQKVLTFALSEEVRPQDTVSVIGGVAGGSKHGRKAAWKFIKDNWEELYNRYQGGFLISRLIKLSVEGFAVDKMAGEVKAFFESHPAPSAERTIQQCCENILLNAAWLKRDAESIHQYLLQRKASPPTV
- Protocol Notes: Cell-based NPEPPS activity assay (Q-AMC fluorescence)
- Condition Summary: log10 transformed; EC50 = concentration that elevates 50% NPEPPS activity (150% of DMSO baseline); HEK293T cells
Assay Endpoint: EC50 (µM)
Give bare numbers, in µM.

Brc1ccc(CNc2nsc3ccccc23)cc1    126
Cc1ccccc1COc1ccc(CNc2nsc3ccc(OCc4ccccc4)cc23)cc1    26.3
Fc1ccc2snc(NCc3ccc(C(F)(F)F)cc3)c2c1    26.9
c1ccc(COc2ccc3snc(NCc4ccc(OCc5cccs5)cc4)c3c2)cc1    5.13

Problem: Request the reported EC50 associated with COc1ccc(C(Nc2nsc3ccccc23)c2ccc(OC)cc2)cc1
Result: 10

====

- Test system: HEK293T cells
- Protocol Notes: Cell viability assay (CellTiter Glo)
- Type: cell-based, human
- Condition Summary: ratio of IC50 (cell viability) over EC50 (NPEPPS activity)
Hi there, I'd appreciate the recorded Therapeutic index for every entry that follows.

COc1ccc(Nc2nsc3ccccc23)cc1OC [JMM025]    1.54
c1ccc(COc2ccc(CNc3nsc4cnccc34)cc2)cc1 [JMM077]    9.60
FC(F)(F)c1ccccc1CNc1nsc2ccccc12 [JMM050]    16.62
Brc1ccc(CNc2nsc3ccccc23)cc1 [JMM016]    0.38
COc1ccc(CNc2noc3ccccc23)cc1OC [JMM040]    1.00
N#Cc1cccc2c(NCc3ccc(C(F)(F)F)cc3)nsc12 [JMM070]    13.25
c1ccc(COc2ccc(CNc3nsc4ccc(OCc5ccccc5)cc34)cc2)cc1 [JMM083]    2189.48
O=[N+]([O-])c1ccc(CNc2nsc3ccccc23)cc1 [JMM043]    3.79

Batch lookup, Therapeutic index per entry.
1. FC(F)(F)c1ccc(CNc2nccc3ccccc23)cc1 [JMM037]
2. FC(F)(F)c1ccc(CNc2noc3ccccc23)cc1 [JMM039]
3. C[C@H](Nc1nsc2ccccc12)c1cccc2ccccc12 [JMM101]

Result:
0.84
3.03
5.74

====

- System: HEK293T cells
- Protocol Notes: Cell viability assay (CellTiter Glo)
- Assay type: cell-based, human
- Condition Summary: ratio of IC50 (cell viability) over EC50 (NPEPPS activity)
Could you please mark rule met for values of Therapeutic index below 1 and rule not met for values at or above it?

Examples from the recorded data:
Clc1ccc(CNc2nsc3ccc(OCc4ccccc4)cc23)cc1Cl    rule not met
c1ccc(COc2ccc3snc(NCc4ccc(OCC5CCC5)cc4)c3c2)cc1    rule not met
COc1ccc(CNc2nsc3ccc(OC)cc23)cc1    rule met
COc1ccc(CCNc2nsc3ccccc23)cc1OC    rule met

Problem: I'd appreciate it if you could check whether FC(F)(F)c1ccc(CNc2nsc3cccc(OCc4ccccc4)c23)cc1 has Therapeutic index smaller than 1.
Result: rule not met

Problem: I'd appreciate it if you could check whether N#Cc1ccc(CNc2nsc3ccccc23)cc1 has Therapeutic index smaller than 1.
Result: rule not met

Problem: I'd appreciate it if you could check whether Cc1ccccc1COc1ccc(CNc2nsc3ccc(OCc4ccccc4)cc23)cc1 has Therapeutic index smaller than 1.
Result: rule not met

Problem: I'd appreciate it if you could check whether COc1ccc(C(=O)Nc2nsc3ccccc23)cc1 has Therapeutic index smaller than 1.
Result: rule met

Problem: I'd appreciate it if you could check whether FC(F)(F)c1ccc(CNc2nsc3ccc(OCc4ccccc4)cc23)cc1 has Therapeutic index smaller than 1.
Result: rule not met

Problem: I'd appreciate it if you could check whether c1ccc(COc2ccc3snc(NCc4ccc(OCc5cccc6ccccc56)cc4)c3c2)cc1 has Therapeutic index smaller than 1.
Result: rule not met

====

- Test Target: NPEPPS (Homo sapiens)
- Construct: endogenous in cells
- Protocol Notes: Cell-based NPEPPS activity assay (Q-AMC fluorescence)
- Condition Summary: log10 transformed; EC50 = concentration that elevates 50% NPEPPS activity (150% of DMSO baseline); HEK293T cells
Assay Endpoint: EC50 (µM)
Answers are plain numbers, in µM.

Observe how each entry below is paired with its result.
CN(Cc1ccc(C(F)(F)F)cc1)c1nsc2ccccc12    8.13
COc1ccc(CN(C)c2nsc3ccccc23)cc1OC    58.9
FC(F)(F)c1ccccc1CNc1nsc2ccccc12    11.2
FC(F)(F)c1ccc(CNc2nsc3ccc(OCc4ccccc4)cc23)cc1    6.46
FC(F)(F)Oc1ccccc1CNc1nsc2ccccc12    52.5
FC(F)(F)c1ccc2snc(NCc3ccc(OCc4ccccc4)cc3)c2c1    13.8
COc1ccc(CNc2nsc3ccccc23)cc1OC    15.8
FC(F)(F)c1cccc(CNc2nsc3ccccc23)c1    50.1

Batch lookup, EC50 per entry.
1. Clc1ccc(COc2ccc(CNc3nsc4ccc(OCc5ccccc5)cc34)cc2)cc1Cl
2. COc1ccc(CNc2nsc3c(F)cccc23)cc1OC
3. FC(F)(F)Oc1ccc(CNc2nsc3ccccc23)cc1

Result:
1. 1.05
2. 5.75
3. 123

Source: patent US20240174625A1
